Data origin, for the record: ChEMBL document CHEMBL4483862

test system: Plasmodium berghei; test: Luciferase/luciferin-expressing antifolate-resistant parasites were used to infect a culture of HepG2 cells that were pre-incubated with compounds. Infected hepatocytes emit light due to the luciferase reaction. Assay results are presented as the percent inhibition of light emission compared to control. […]; assay type: functional; settings: sporozoite, HEPG2TOX_HILL_SLOPE 10.5, HEPG2TOX_R_SQUARED 0.0746, read-out: LUCIFERASE INFECTION ASSAY - IC50
ASSAY ENDPOINT: IC50

1) COc1ccc(C)cc1CCNc1cc(Cl)nc(N)n1 = > 10 µM

###

tested on: Plasmodium berghei; experiment: Luciferase/luciferin-expressing antifolate-resistant parasites were used to infect a culture of HepG2 cells that were pre-incubated with compounds. Infected hepatocytes emit light due to the luciferase reaction. Assay results are presented as the percent inhibition of light emission compared to control. […]; assay type: functional; conditions: sporozoite, PBLUC_HILL_SLOPE 71.1, PBLUC_R_SQUARED 0.59, read-out: LUCIFERASE INFECTION ASSAY - IC50
ASSAY ENDPOINT: IC50 (µM)

1) O=C(NNC(=O)c1nn(-c2ccccc2)cc1O)c1ccc2c(c1)OCO2 = 6.09
